meta.source: ChEMBL document CHEMBL4251543

assay: Prodrug conversion in Lewis rat blood assessed as parent compound levels at 2 mg/kg, po after 48 hrs; format: ADME, organism-based; conditions: in vivo, read-out: Drug metabolism
Recorded concentration by entry

{"columns": ["QUERY SMILES", "VALUE OPERATOR", "concentration / µM"],
 "data": [
  ["CCCCCOc1nc2ccc3cc([C@H]4CC[C@](N)(CO)C4)ccc3c2s1", "=", 0.0083],
  ["CCCCCCOc1nc2ccc3cc([C@H]4CC[C@](N)(CO)C4)ccc3c2s1", "=", 0.041],
  ["CCCCOCCOc1nc2c(s1)-c1ccc([C@H]3CC[C@](N)(CO)C3)cc1CC2", "=", 0.027],
  ["CCCCCCc1nc2c(s1)-c1ccc([C@H]3CC[C@](N)(CO)C3)cc1CC2", "<", 0.01],
  ["CCCCOc1nc2ccc3cc([C@H]4CC[C@](N)(CO)C4)ccc3c2s1", "=", 0.012],
  ["CCCCCc1nc2c(s1)-c1ccc([C@H]3CC[C@](N)(CO)C3)cc1CC2", "=", 0.025],
  ["CCCCSc1nc2ccc3cc([C@H]4CC[C@](N)(CO)C4)ccc3c2s1", "<", 0.005],
  ["CCCCCCCc1nc2c(s1)-c1ccc([C@H]3CC[C@](N)(CO)C3)cc1CC2", "=", 0.043],
  ["CCCCN(C)c1nc2c(s1)-c1ccc([C@H]3CC[C@](N)(CO)C3)cc1CC2", "=", 0.0041],
  ["CCCCc1nc2c(s1)-c1ccc([C@H]3CC[C@](N)(CO)C3)cc1CC2", "<", 0.005],
  ["COc1cccc(-c2nc3c(s2)-c2ccc([C@H]4CC[C@](N)(CO)C4)cc2CC3)c1", "<", 0.005],
  ["CCCCCOc1nc2c(s1)-c1ccc([C@H]3CC[C@](N)(CO)C3)cc1CC2", "=", 0.012],
  ["CCCCOc1nc2c(s1)-c1ccc([C@H]3CC[C@](N)(CO)C3)cc1CC2", "<", 0.005],
  ["CCCCCSc1nc2c(s1)-c1ccc([C@H]3CC[C@](N)(CO)C3)cc1CC2", "<", 0.005],
  ["CCCCCCOc1nc2c(s1)-c1ccc([C@H]3CC[C@](N)(CO)C3)cc1CC2", "=", 0.017],
  ["CCCCSc1nc2c(s1)-c1ccc([C@H]3CC[C@](N)(CO)C3)cc1CC2", "<", 0.001]
]}
